test: label from the status in PepcDB records

Biosequence: MSRKSAPSSTAAPAPKLAADRIRATARELFYREGIRAVGVDAIVSAAGVTKPSLYRSFSSKDELAASYLRDYETEFWSRFDAGAQRHPDDPRAQLRLYLESLAERAANAGPYRGCGLSNAAVEYPDPDHPARLVAEAHKRELRRRLIDMARRMGAREPEVLGDGLMLLIEGAFISGQLFHGDGPARHVARLADRLIEASL
protein production: failed
//
Biosequence: MRIDLSVPKVGAELELNKVLGKGSSGSVSLIKYKSRLDGQTLYAAVKTSNIIHADSLLKEFQILSEFKGCSRIVQCYGTKVQETINEEGDVEFTIPMEYASGGSLRHFMSRFKDMKLPDALIRRFTRMILEGLAVIHGHGYVHCDLKPENILVFPSFELKISDFGLSKREGDSKWWLPSHPFAGTPVYMSPESISNGETRRGLDLWSLGCVVLEMYTGKRPWWDKNYDLGDLKKGSMPLISKDIPCDAKLFVMTCFASETNKRKNAFTLLRHCFLRGDVNKIIEPLVKSKNSNDIALELENIEHRLSQLRCISGG
protein production: failed
//
Biosequence: MDAPTSQRYTAKARWLHWIMAALIVLAYTLILSRTQFGKGSEYRTLVVQSHFWVGIVVLVLAFFRVAERRRQRPPGITPPLEGVLRAAATLSHYALYAFLFTQPLLGLLTVMVEKGSLPIPLTDLQIPWPLPISDHTAEYFEDLHKLLGKIFYYVIGLHVVAALWHHIVRKDNTLKRML
protein production: failed
